# Test protocol: The drug is tested on Bacteroides coprophilus strain: DSM18228 for biotransformation. The drug concentrations were measured before and after a 12-h incubation by liquid-chromatography-coupled mass spectrometry (LC–MS)
# Condition parameters: 2 µM
Property name: Bacterial Biotransformation

Use the examples below as a reference point.
Compound: CC#CCn1c(N2CCC[C@@H](N)C2)nc2c1c(=O)n(Cc1nc(C)c3ccccc3n1)c(=O)n2C [LINAGLIPTIN]
Bacterial Biotransformation: Compound metabolized

Compound: OC(c1cc(C(F)(F)F)nc2c(C(F)(F)F)cccc12)C1CCCCN1 (configuration not stated) [MEFLOQUINE]
Bacterial Biotransformation: Compound NOT metabolized

Compound: COc1ccnc(C[S+]([O-])c2nc3ccc(OC(F)F)cc3[nH]2)c1OC (configuration not stated) [PANTOPRAZOLE]
Bacterial Biotransformation: Compound metabolized

Compound: CNCC[C@H](Oc1cccc2ccccc12)c1cccs1 [DULOXETINE]
Bacterial Biotransformation: Compound metabolized

Compound: CN(C)C(=O)Oc1cc(OC(=O)N(C)C)cc(C(O)CNC(C)(C)C)c1 (configuration not stated) [BAMBUTEROL]
Bacterial Biotransformation: Compound NOT metabolized

Compound: CCCN1C[C@H](CSC)C[C@@H]2c3cccc4[nH]cc(c34)C[C@H]21.CS(=O)(=O)O [PERGOLIDE MESYLATE]
Bacterial Biotransformation: Compound NOT metabolized

Compound: COc1cc2nc(N(C)CCCNC(=O)C3CCCO3)nc(N)c2cc1OC (configuration not stated) [ALFUZOSIN]
Bacterial Biotransformation: Compound NOT metabolized

Compound: Cc1ccc(S(=O)(=O)NC(=O)NN2CCCCCC2)cc1 [TOLAZAMIDE]
Bacterial Biotransformation: Compound metabolized

Compound: Cc1ccccc1C(OCCN(C)C)c1ccccc1.O=C(O)CC(O)(CC(=O)O)C(=O)O (configuration not stated) [ORPHENADRINE CITRATE]
Bacterial Biotransformation: Compound NOT metabolized

Compound: O=c1[nH]c2ccccc2n1CCCN1CCC(n2c(=O)[nH]c3cc(Cl)ccc32)CC1 [DOMPERIDONE]
Bacterial Biotransformation: Compound NOT metabolized

Entry CCc1cccc2c3c([nH]c12)C(CC)(CC(=O)O)OCC3 (configuration not stated) [ETODOLAC] — recorded Bacterial Biotransformation = Compound NOT metabolized

// `N[C@@H](Cc1ccc(N(CCCl)CCCl)cc1)C(=O)O` : Bacterial Biotransformation value = Compound metabolized

Per the records, this compound ( COc1ccc(Cc2nccc3cc(OC)c(OC)cc23)cc1OC [PAPAVERINE] ) has Bacterial Biotransformation equal to Compound NOT metabolized

get_value(item= CC(=O)OCC(=O)NCCCOc1cccc(CN2CCCCC2)c1 [ROXATIDINE ACETATE] , readout=Bacterial Biotransformation) returns Compound metabolized

GET /value?item= C[C@@H](CO)NC(=O)[C@@H]1C=C2c3cccc4[nH]cc(c34)C[C@H]2N(C)C1.O=C(O)/C=C\C(=O)O [ERGONOVINE MALEATE] &field=Bacterial Biotransformation returns Compound metabolized

CCOc1cc(CC(=O)N[C@@H](CC(C)C)c2ccccc2N2CCCCC2)ccc1C(=O)O [REPAGLINIDE] has a reported Bacterial Biotransformation of Compound metabolized

The reported value for CC(C)(C(=O)O)c1ccc(C(O)CCCN2CCC(C(O)(c3ccccc3)c3ccccc3)CC2)cc1 (configuration not stated) [FEXOFENADINE] in terms of Bacterial Biotransformation is Compound NOT metabolized

----------
# Test protocol: The drug is tested on Bacteroides pectinophilus strain: ATCC43243 for biotransformation. The drug concentrations were measured before and after a 12-h incubation by liquid-chromatography-coupled mass spectrometry (LC–MS)
# Condition parameters: 2 µM

Molecule: CC[C@@H](CO)NC(=O)[C@@H]1C=C2c3cccc4c3c(cn4C)C[C@H]2N(C)C1.O=C(O)/C=C\C(=O)O [METHYSERGIDE MALEATE]
Bacterial Biotransformation: Compound metabolized
//
Molecule: CN1CCC[C@@H]1CCO[C@](C)(c1ccccc1)c1ccc(Cl)cc1.O=C(O)/C=C/C(=O)O [CLEMASTINE FUMARATE]
Bacterial Biotransformation: Compound metabolized
//
Molecule: OC(CCN1CCCCC1)(c1ccccc1)C1CCCCC1 (centres undefined)
Bacterial Biotransformation: Compound NOT metabolized
//
Molecule: CN1CCN(C2=Nc3cc(Cl)ccc3Nc3ccccc32)CC1
Bacterial Biotransformation: Compound NOT metabolized

----------
# Test protocol: The drug is tested on Parabacteroides merdae strain: ATCC43184 for biotransformation. The drug concentrations were measured before and after a 12-h incubation by liquid-chromatography-coupled mass spectrometry (LC–MS)
# Condition parameters: 2 µM
Property name: Bacterial Biotransformation

Worked cases, Bacterial Biotransformation given:
Compound: CC1Cc2ccccc2N1NC(=O)c1ccc(Cl)c(S(N)(=O)=O)c1 (stereo not drawn) [INDAPAMIDE]
Recorded result: Compound NOT metabolized
--
Compound: Cc1ccc(-c2cc(C(F)(F)F)nn2-c2ccc(S(N)(=O)=O)cc2)cc1
Recorded result: Compound NOT metabolized
--
Compound: CC[C@H](C)C(=O)O[C@H]1C[C@@H](C)C=C2C=C[C@H](C)[C@H](CC[C@@H]3C[C@@H](O)CC(=O)O3)[C@H]21
Recorded result: Compound metabolized
--
Compound: CCOc1ccccc1OCCN[C@H](C)Cc1ccc(OC)c(S(N)(=O)=O)c1.Cl [TAMSULOSIN HYDROCHLORIDE]
Recorded result: Compound NOT metabolized

So, COc1ccc(CCN(C)CCCC(C#N)(c2ccc(OC)c(OC)c2)C(C)C)cc1OC (stereo not drawn) ? Its Bacterial Biotransformation was Compound NOT metabolized

get_value(item= `CN1CCc2cccc3c2[C@H]1Cc1ccc(O)c(O)c1-3` , readout=Bacterial Biotransformation) returns Compound NOT metabolized

// sample `O=C(O)c1cc(/N=N/c2ccc(S(=O)(=O)Nc3ccccn3)cc2)ccc1O` , its Bacterial Biotransformation was Compound metabolized

In plain terms, `CC[C@@]1(O)C(=O)OCc2c1cc1n(c2=O)Cc2cc3c(CN(C)C)c(O)ccc3nc2-1` has a documented Bacterial Biotransformation of Compound NOT metabolized

----------
# Test protocol: The drug is tested on Parabacteroides merdae strain: ATCC43184 for biotransformation. The drug concentrations were measured before and after a 12-h incubation by liquid-chromatography-coupled mass spectrometry (LC–MS)
# Condition parameters: 2 µM
Property name: Bacterial Biotransformation

Recorded Bacterial Biotransformation, per entry:
Compound: COc1ccc2[nH]c([S+]([O-])Cc3ncc(C)c(OC)c3C)nc2c1 (configuration not stated)
Bacterial Biotransformation: Compound metabolized

Compound: Clc1ccc(Cn2c(CN3CCCC3)nc3ccccc32)cc1
Bacterial Biotransformation: Compound NOT metabolized

Compound: O=c1[nH]c2ccccc2n1CCCN1CCC(n2c(=O)[nH]c3cc(Cl)ccc32)CC1
Bacterial Biotransformation: Compound NOT metabolized

Compound: CCOC(=O)[C@H](CCc1ccccc1)N[C@@H](C)C(=O)N1Cc2ccccc2C[C@H]1C(=O)O
Bacterial Biotransformation: Compound NOT metabolized

Compound: CCN1CCCC1CNC(=O)c1cc(S(=O)(=O)CC)c(N)cc1OC (configuration not stated) [AMISULPRIDE]
Bacterial Biotransformation: Compound NOT metabolized

The compound listed as `CC[C@H](C)C(=O)O[C@H]1CCC=C2C=C[C@H](C)[C@H](CC[C@@H]3C[C@@H](O)CC(=O)O3)[C@H]21` has a reported Bacterial Biotransformation of Compound metabolized

The reported Bacterial Biotransformation of the compound `CN1CCN(CC/C=C2/c3ccccc3Sc3ccc(S(=O)(=O)N(C)C)cc32)CC1` was Compound NOT metabolized

----------
# Test protocol: The drug is tested on Eggerthella lenta strain: ATCC25559 for biotransformation. The drug concentrations were measured before and after a 12-h incubation by liquid-chromatography-coupled mass spectrometry (LC–MS)
# Condition parameters: 2 µM
Property name: Bacterial Biotransformation

Reference set, count: 6
Compound: CCc1cccc2c3c([nH]c12)C(CC)(CC(=O)O)OCC3 (stereo not drawn)
Recorded result: Compound NOT metabolized
//
Compound: CN1CCC(=C2c3ccccc3CC(=O)c3sccc32)CC1.O=C(O)/C=C/C(=O)O [KETOTIFEN FUMARATE]
Recorded result: Compound NOT metabolized
//
Compound: CC(=O)SCC(Cc1ccccc1)C(=O)NCC(=O)OCc1ccccc1 (stereo not drawn)
Recorded result: Compound NOT metabolized
//
Compound: N[C@@H](Cc1ccc(N(CCCl)CCCl)cc1)C(=O)O
Recorded result: Compound metabolized
//
Compound: OCCN(CCO)c1nc(N2CCCCC2)c2nc(N(CCO)CCO)nc(N3CCCCC3)c2n1
Recorded result: Compound NOT metabolized
//
Compound: COCCc1ccc(OCC(O)CNC(C)C)cc1.COCCc1ccc(OCC(O)CNC(C)C)cc1.O=C(O)C(O)C(O)C(=O)O (stereo not drawn) [METOPROLOL TARTRATE]
Recorded result: Compound NOT metabolized

Just so you know, measured Bacterial Biotransformation for COc1ccnc(C[S+]([O-])c2nc3ccc(OC(F)F)cc3[nH]2)c1OC (stereo not drawn) came out at Compound metabolized

Input CC(=O)OCC(=O)NCCCOc1cccc(CN2CCCCC2)c1 [ROXATIDINE ACETATE] . Output Bacterial Biotransformation: Compound metabolized

Data origin, for the record: ChEMBL document CHEMBL5303573
